The measured values listed here are drawn from patent US20120207760A1.

Recorded measurements of Trimeric HA Binding RLU, one per entry
# assayTarget: recombinant homotrimeric HA, A/California/4/09 H1N1 (Influenza A virus A/California/4/09 (H1N1))
# measurementProtocol: trimeric HA microarray, transfection set 4
# conditionContext: remark: other sources report otherwise
readout: Trimeric HA Binding RLU (RLU)

1) TCN-536 (5095_N01) (antibody, V domains shown) VH: QVQLQQWGAGLLKPSETLSLTCAVYGGSFSVSGYYWSWIRQPPGRGLEWIGEISHGGSTNYNPSLKSRVTISVDTTKNQFSLRLSSVTAADTAVYYCARGTDPDTEVYCRVGNCAAFDYWGQGSLVTVSS VL: EIILAQSPGTLSLSPGERATLSCRASQFVSTRSLAWYQQRPGQAPRLLIYGASSRATGIPDRFSGSGSGTDFTLTISRLEPEDFAVYYCQHYGYSPRYAFGQGSKVEIK : 49
2) TCN-504 (3251_K17) (antibody, V domains shown) VH: QVQLQESGPGLVKPSETLSLTCAVSGVSISNIDFYWGWIRQPPGKGLEWIGNIYYTGITFYNPSLSSRVAISIDTSKNQFSLTLTSVTAADTAMYYCARHYGDSEAINDAFDIWGQGTMLTVSS VL: EIVMTQSPATLSVSPGERATLSCRASQSVGNSLAWYQQRPGQAPRLLIYGASTRATGIPPRFSGSGSGTEFTLTISSLQTEDFAVYYCQQYINWRPLSFGGGTKVEIK : 549
3) TCN-534 (5249_B02) (antibody, V domains shown) VH: QVQLVQSGAEVKKPGSSVKVSCRESGGTFNGYTITWVRQAPGQGLEWMGGIIPMMGTVNYAQKLQGRVTITTDYFTKTAYMDLNNLRSEDTAMYYCVKIRYTGQQLLWGQGTLVTVSS VL: DIQMTQSPSTLSASIGDRVTITCRASQSIASWLAWYQQKPGKAPKLLIYEAVNLESGVPSRFSGSGSGTDFTLTISSLQPDDFATYFCQHYGTISQTFGGGTKVEIK : 27000
